# System: 521955-158-R2-J5-PDC complex spheroid viability
# methodNotes: Anticancer human tumor 521955-158-R2-J5-PDC patient-derived pancreatic carcinoma cell line growth inhibition [GQUAD]; active = viability on the fitted dose curve at most 10% of control; inactive = the rest
# appliedConditions: second compound 3.16 µM; first compound 0.316 µM
Your answer must be one of the following: active, inactive

Sample answers from the record:
Cn1ncnc1[C@H]1c2n[nH]c(=O)c3cc(F)cc(c23)N[C@@H]1c1ccc(F)cc1 + Cc1cnc(CNC(=O)c2c(=O)c3ccc(N4CCCN(C)CC4)nc3n3c2sc2ccccc23)cn1 ... inactive
C#Cc1c(F)ccc2cc(O)cc(-c3ncc4c(N5CC6CCC(C5)N6)nc(OCC56CCCN5CC(F)C6)nc4c3F)c12 (configuration not stated) + Cc1cnc(CNC(=O)c2c(=O)c3ccc(N4CCCN(C)CC4)nc3n3c2sc2ccccc23)cn1 ... active

Qu. Given O=C(NO)c1cnc(N2CCN(S(=O)(=O)c3ccc4ccccc4c3)CC2)nc1 + CN(C)c1ccc(Nc2c3ccc(NC(=O)CCN4CCCC4)cc3nc3cc(NC(=O)CCN4CCCC4)ccc23)cc1 , state the outcome it received in this test.
Ans. inactive

Qu. Then this compound: O=c1[nH]cc(F)c(=O)[nH]1 + CN(C)c1ccc(Nc2c3ccc(NC(=O)CCN4CCCC4)cc3nc3cc(NC(=O)CCN4CCCC4)ccc23)cc1
Ans. inactive

Qu. COc1ccc([C@@H](O)c2cc(-c3ncnc4cc(N5CCOCC5)ccc34)c(F)cc2Cl)nn1 + Cc1cnc(CNC(=O)c2c(=O)c3ccc(N4CCCN(C)CC4)nc3n3c2sc2ccccc23)cn1 , same question.
Ans. inactive

Qu. Can you handle CC(C)(O)C1CCC(Nc2ccc3ncc(-c4cccc(C(F)(F)F)c4)n3n2)CC1 (configuration not stated) + Cc1cnc(CNC(=O)c2c(=O)c3ccc(N4CCCN(C)CC4)nc3n3c2sc2ccccc23)cn1 next?
Ans. inactive

====

# Test system: 521955-158-R2-J5-PDC complex spheroid viability
# methodNotes: Anticancer human tumor 521955-158-R2-J5-PDC cell line growth inhibition [GQUAD];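 also: spheroids exposed to agents for one week before reading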;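 as to viability, T/C: 100% = DMSO vehicle control viability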
# appliedConditions: second compound 10 µM; first compound 0.0316 µM; stronger effect = lower value
outcomeMeasure: viability, T/C

Qu. Report viability, T/C for CC1COCCN1c1cc(-c2ccnn2C)c2ccnc(-c3ccn[nH]3)c2n1 (centres undefined) + Cc1[nH]c2ccc(F)cc2c1-c1nc2c3cccnc3c3ncccc3c2[nH]1 tested on 521955-158-R2-J5-PDC complex spheroid viability.
Ans. 77.7%

Qu. Please do the same for COc1ncnc(C2CC2)c1-c1ncc2cnn(Cc3ccc(-c4nc(C(F)(F)F)cn4C(C)C)cc3)c2n1 + CN(C)c1ccc(Nc2c3ccc(NC(=O)CCN4CCCC4)cc3nc3cc(NC(=O)CCN4CCCC4)ccc23)cc1 as well.
Ans. 74%

Qu. Try Cn1ncnc1[C@H]1c2n[nH]c(=O)c3cc(F)cc(c23)N[C@@H]1c1ccc(F)cc1 + Cc1cnc(CNC(=O)c2c(=O)c3ccc(N4CCCN(C)CC4)nc3n3c2sc2ccccc23)cn1 next.
Ans. 19.8%

Qu. // same read-out, input: C#Cc1c(F)ccc2cc(O)cc(-c3ncc4c(N5CC6CCC(C5)N6)nc(OCC56CCCN5CC(F)C6)nc4c3F)c12 (centres undefined) + CN(C)c1ccc(Nc2c3ccc(NC(=O)CCN4CCCC4)cc3nc3cc(NC(=O)CCN4CCCC4)ccc23)cc1
Ans. 31.8%

====

# maps each entry to its viability, T/C
# Test system: 521955-158-R2-J5-PDC complex spheroid viability
# methodNotes: Anticancer human tumor 521955-158-R2-J5-PDC cell line growth inhibition [GQUAD];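 also: spheroids exposed to agents for one week before reading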;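 as to viability, T/C: 100% = DMSO vehicle control viability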
# appliedConditions: second compound 3.16 µM; first compound 0.316 µM; stronger effect = lower value
# Text: DNA G-quadruplex Stabilizer Agents in Combinations in Complex Spheroids A high-throughput screen of multi-cell type tumor spheroids was designed to identify active combinations of DNA G-quadruplex stabilizer agents and targeted small molecules. […] Compounds. […] If the clinical Cmax for an agent had not been determined, the highest concentration tested was 10 microM. […]
The response must be a number in % with no trailing unit.

Worked examples, 7 molecules total:
CCc1c2c(nc3ccc(O)cc13)-c1cc3c(c(=O)n1C2)COC(=O)[C@]3(O)CC + Cc1cnc(CNC(=O)c2c(=O)c3ccc(N4CCCN(C)CC4)nc3n3c2sc2ccccc23)cn1 ... 0.14
COc1ncnc(C2CC2)c1-c1ncc2cnn(Cc3ccc(-c4nc(C(F)(F)F)cn4C(C)C)cc3)c2n1 + Cc1cnc(CNC(=O)c2c(=O)c3ccc(N4CCCN(C)CC4)nc3n3c2sc2ccccc23)cn1 ... 16.4
Cc1cccc(N(C)C(=O)C2C(O)CCN2c2nc(C)cc(C(F)(F)F)c2C#N)c1 (stereo not drawn) + Cc1[nH]c2ccc(F)cc2c1-c1nc2c3cccnc3c3ncccc3c2[nH]1 ... 92.5
COc1cccc2c1C(=O)c1c(O)c3c(c(O)c1C2=O)CC(O)(C(=O)CO)CC3OC1CC(N)C(O)C(C)O1 (stereo not drawn) + CN(C)c1ccc(Nc2c3ccc(NC(=O)CCN4CCCC4)cc3nc3cc(NC(=O)CCN4CCCC4)ccc23)cc1 ... 34.1
O=C(c1cc(Cc2n[nH]c(=O)c3ccccc23)ccc1F)N1CCN(C(=O)C2CC2)CC1 + Cc1[nH]c2ccc(F)cc2c1-c1nc2c3cccnc3c3ncccc3c2[nH]1 ... 78.7
CCCS(=O)(=O)Nc1ccc(F)c(C(=O)c2c[nH]c3ncc(-c4ccc(Cl)cc4)cc23)c1F + Cc1cnc(CNC(=O)c2c(=O)c3ccc(N4CCCN(C)CC4)nc3n3c2sc2ccccc23)cn1 ... 16.8
CC1COCCN1c1cc(C2(S(C)(=N)=O)CC2)nc(-c2ccnc3[nH]ccc23)n1 (stereo not drawn) + CN(C)c1ccc(Nc2c3ccc(NC(=O)CCN4CCCC4)cc3nc3cc(NC(=O)CCN4CCCC4)ccc23)cc1 ... 89.2

Qu. Would you kindly share the measured viability, T/C for C=CCn1c(=O)c2cnc(Nc3ccc(N4CCN(C)CC4)cc3)nc2n1-c1cccc(C(C)(C)O)n1 + Cc1[nH]c2ccc(F)cc2c1-c1nc2c3cccnc3c3ncccc3c2[nH]1 ?
Ans. 34.8

====

# Tested on: 521955-158-R2-J5-PDC complex spheroid viability
# methodNotes: Anticancer human tumor 521955-158-R2-J5-PDC cell line growth inhibition [GQUAD];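 also: spheroids exposed to agents for one week before reading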
# appliedConditions: curve of first compound; second compound 0.1 µM
outcomeMeasure: IC50

Take a look at these entries with their results.
COc1ncnc(C2CC2)c1-c1ncc2cnn(Cc3ccc(-c4nc(C(F)(F)F)cn4C(C)C)cc3)c2n1 + CN(C)c1ccc(Nc2c3ccc(NC(=O)CCN4CCCC4)cc3nc3cc(NC(=O)CCN4CCCC4)ccc23)cc1 ... > 10 µM
O=C(c1cc(Cc2n[nH]c(=O)c3ccccc23)ccc1F)N1CCN(C(=O)C2CC2)CC1 + CN(C)c1ccc(Nc2c3ccc(NC(=O)CCN4CCCC4)cc3nc3cc(NC(=O)CCN4CCCC4)ccc23)cc1 ... > 10 µM
CC(C)n1c(=O)n(C)c2cnc3cc(F)c(-c4ccc(OCCCN5CCCCC5)nc4)cc3c21 + Cc1cnc(CNC(=O)c2c(=O)c3ccc(N4CCCN(C)CC4)nc3n3c2sc2ccccc23)cn1 ... > 10 µM
Cn1ncnc1[C@H]1c2n[nH]c(=O)c3cc(F)cc(c23)N[C@@H]1c1ccc(F)cc1 + Cc1[nH]c2ccc(F)cc2c1-c1nc2c3cccnc3c3ncccc3c2[nH]1 ... > 0.316 µM
COc1ncnc(C2CC2)c1-c1ncc2cnn(Cc3ccc(-c4nc(C(F)(F)F)cn4C(C)C)cc3)c2n1 + Cc1cnc(CNC(=O)c2c(=O)c3ccc(N4CCCN(C)CC4)nc3n3c2sc2ccccc23)cn1 ... > 10 µM

Please find the next compound below.
Qu. Provide value of IC50 for this record tested with 521955-158-R2-J5-PDC complex spheroid viability: CCc1c2c(nc3ccc(O)cc13)-c1cc3c(c(=O)n1C2)COC(=O)[C@]3(O)CC + Cc1cnc(CNC(=O)c2c(=O)c3ccc(N4CCCN(C)CC4)nc3n3c2sc2ccccc23)cn1
Ans. < 0.000999 µM

====

# System: 521955-158-R2-J5-PDC complex spheroid viability
# methodNotes: Anticancer human tumor 521955-158-R2-J5-PDC cell line growth inhibition [GQUAD];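 also: spheroids exposed to agents for one week before reading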;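 as to viability, T/C: 100% = DMSO vehicle control viability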
# appliedConditions: second compound 0.1 µM; first compound 0.0316 µM; stronger effect = lower value
So basically, the class depends on measured viability, T/C, and the ranges are bottom: < 50%; middle: ≥ 50% and < 80%; top: ≥ 80%

C=CC(=O)N1CCN(c2nc(=O)n(-c3c(C)ccnc3C(C)C)c3nc(-c4c(O)cccc4F)c(F)cc23)C(C)C1 (stereo unspecified) + CN(C)c1ccc(Nc2c3ccc(NC(=O)CCN4CCCC4)cc3nc3cc(NC(=O)CCN4CCCC4)ccc23)cc1 ... top
CCc1c2c(nc3ccc(O)cc13)-c1cc3c(c(=O)n1C2)COC(=O)[C@]3(O)CC + CN(C)c1ccc(Nc2c3ccc(NC(=O)CCN4CCCC4)cc3nc3cc(NC(=O)CCN4CCCC4)ccc23)cc1 ... bottom
Cc1[nH]c2ccccc2c1CCNCc1ccc(/C=C/C(=O)NO)cc1 + Cc1cnc(CNC(=O)c2c(=O)c3ccc(N4CCCN(C)CC4)nc3n3c2sc2ccccc23)cn1 ... middle
COc1cccc2c1C(=O)c1c(O)c3c(c(O)c1C2=O)CC(O)(C(=O)CO)CC3OC1CC(N)C(O)C(C)O1 (stereo unspecified) + CN(C)c1ccc(Nc2c3ccc(NC(=O)CCN4CCCC4)cc3nc3cc(NC(=O)CCN4CCCC4)ccc23)cc1 ... top
COc1ccc([C@@H](O)c2cc(-c3ncnc4cc(N5CCOCC5)ccc34)c(F)cc2Cl)nn1 + CN(C)c1ccc(Nc2c3ccc(NC(=O)CCN4CCCC4)cc3nc3cc(NC(=O)CCN4CCCC4)ccc23)cc1 ... top

Qu. Classify this compound: CC1COCCN1c1cc(C2(O)CC3CCC(C2)O3)c2cnn(-c3ccn[nH]3)c2n1 (stereo unspecified) + Cc1[nH]c2ccc(F)cc2c1-c1nc2c3cccnc3c3ncccc3c2[nH]1
Ans. bottom

Qu. Do the same for Cn1ncnc1[C@H]1c2n[nH]c(=O)c3cc(F)cc(c23)N[C@@H]1c1ccc(F)cc1 + Cc1cnc(CNC(=O)c2c(=O)c3ccc(N4CCCN(C)CC4)nc3n3c2sc2ccccc23)cn1 please
Ans. bottom

Qu. Record: COc1cc(C2c3cc4c(cc3C(OC3OC5COC(C)OC5C(O)C3O)C3COC(=O)C23)OCO4)cc(OC)c1O (stereo unspecified) + Cc1cnc(CNC(=O)c2c(=O)c3ccc(N4CCCN(C)CC4)nc3n3c2sc2ccccc23)cn1
Ans. middle

Qu. Now this one: COc1ccc([C@@H](O)c2cc(-c3ncnc4cc(N5CCOCC5)ccc34)c(F)cc2Cl)nn1 + Cc1cnc(CNC(=O)c2c(=O)c3ccc(N4CCCN(C)CC4)nc3n3c2sc2ccccc23)cn1
Ans. middle

Qu. Same thing, different compound: COc1cc(C2c3cc4c(cc3C(OC3OC5COC(C)OC5C(O)C3O)C3COC(=O)C23)OCO4)cc(OC)c1O (stereo unspecified) + CN(C)c1ccc(Nc2c3ccc(NC(=O)CCN4CCCC4)cc3nc3cc(NC(=O)CCN4CCCC4)ccc23)cc1
Ans. top

The origin of these recorded values is PubChem BioAssay AID2060495.
